A collection of compounds and their measured melting point

| compound | melting point |
| --- | --- |
| CCOC(=O)c1cccn2ccnc12 | 48 to 50 °C |
| Cc1noc(C)c1-c1cn(Cc2ccccc2)c(=O)c2ccccc12 | 139 to 141 °C |
| O=C1OC(=O)c2c(Cl)ccc(Cl)c21 | 187 to 190 °C |
| C[C@@H](O)CCN1CCC(c2noc3cc(F)ccc23)CC1 | 82 to 84 °C |

Lookup: Could you please provide reported melting point for c1ccc(N2CCN(CCc3nnn[nH]3)CC2)cc1 ? Thanks!
Found: 190 to 194 °C

Lookup: Give me measured melting point, please, for this compound: C(=C\c1nc(COc2ccc(CCCn3cnc(-c4ccccc4)c3-c3ccccc3)cc2)co1)/c1ccccc1
Found: 137 to 138 °C

Lookup: Consider the compound CCOC(=O)c1cn(Cc2ccccc2)c2cc(C(C)C)nn2c1=O . State its measured melting point.
Found: 135 to 140 °C

Lookup: For O=Cc1cnn(-c2c(Cl)cc(C(F)(F)F)cc2Cl)n1 , write its melting point.
Found: 94 to 95 °C

Lookup: Indicate the recorded melting point value for this compound: CN1CC(CCCl)Oc2ccc(Br)cc2C1=O (configuration not stated)
Found: 92 to 94 °C

Lookup: Indicate the recorded melting point value for this compound: COC(=O)CNC(=O)c1cncc(F)c1
Found: 80 to 82 °C

Lookup: Look up and state reported melting point for Cc1nc(NC(=O)c2cnn3c(C(F)F)cc(-c4ccc(C(F)(F)F)cc4)nc23)sc1S(N)(=O)=O
Found: 284 °C
